# System: Plasmodium berghei
# Protocol text: Screen against P. berghei liver stage (PbLuc), transformed with Luciferase, at 2uM
# Format: functional, HepG2
# Experimental context: tested at 2 uM
In all, about 68,000 compounds went through this assay and about 2,700 (4%) showed an effect of 50% or more. Shown is part of a subset that was picked to be rich in strong results.
# INHIBITION per record follows

Previously resolved entries follow.
Query string: Query (compound): Cc1cc(C)n(CC2CCCN2C(=O)c2cccc3c2OCCO3)n1 (configuration not stated) ; field requested: INHIBITION
Result string: 50.75%

Query string: I have this compound here, Cc1cc(C)n(CC2CCCN2C(=O)c2c(C)noc2C)n1 (configuration not stated) , and I need its recorded INHIBITION.
Result string: -27.28%

Query string: What value of INHIBITION has been reported for the following compound? O=C(N[C@]12CC1CN(C(=O)c1ccco1)C2)c1ccco1 (some centres not stated)
Result string: -50.87%

Next:
Query string: Which INHIBITION is reported for this compound? CCCN1CCCC1Cn1nc(C)cc1C (configuration not stated)
Result string: 60.23%

Query string: Recorded INHIBITION of Cc1cc(C)n(CC2CCCN2C(=O)Cc2c(C)nn(C)c2C)n1 (configuration not stated) , please.
Result string: -15.05%

Query string: Can you share its INHIBITION? I mean this compound: Cc1nc[nH]c1CN(Cc1ccccc1F)C1CC(C)(C)NC(C)(C)C1
Result string: 39.26%

Query string: Consider the compound O=C(N[C@]12CC1CN(C(=O)c1ccco1)C2)c1cccc(F)c1 (some centres not stated) and give its measured INHIBITION.
Result string: 52.36%

Query string: # INHIBITION lookup, item Cc1cc(C)n(CC2CCCN2C(=O)c2ccc3c(c2)OCCO3)n1 (configuration not stated)
Result string: 4.07%

Query string: Tell me the measured INHIBITION of CN(C)c1ncccc1C(=O)N1CCCC1Cn1cccn1 (configuration not stated) , please.
Result string: 7.13%

Query string: Query (compound): COCCN1CCCC1Cn1nc(C)cc1C (configuration not stated) ; field requested: INHIBITION
Result string: 17.98%

Query string: Can you look up the measured INHIBITION of Cc1cc(C)n(CC2CCCN2CCS(C)(=O)=O)n1 (configuration not stated) for me?
Result string: -6.16%

Query string: What does the data say about its INHIBITION? Entry: CC(C)c1cc(C(=O)NCC(O)C2CCOCC2)nn1C(C)(C)C (configuration not stated)
Result string: -31.6%

====

# Test system: Plasmodium berghei
# Protocol text: Screen against P. berghei liver stage (PbLuc), transformed with Luciferase, at 2uM
# Assay type: functional, HepG2
# Experimental context: tested at 2 uM
The campaign covered roughly 68,000 compounds. About 2,700 (4%) showed an effect of 50% or more. The full list was thinned out, with strong results kept by preference.
Test readout: INHIBITION (%)
State the answer as a number, implicitly in %.

Query string: Any idea what INHIBITION was measured for Cc1cc(C)nc(NC2CCOC3(CCCC3)C2)n1 (configuration not stated) ?
Result string: 10.23

Query string: Quick one: INHIBITION of CC(Cn1cncc1-c1cnn(Cc2ccccc2)c1)N1CCCCC1 (configuration not stated) ?
Result string: -22.72

Query string: Quick check: INHIBITION of Cc1nn(C)c(C)c1C1CCCN1c1ncnc2[nH]ccc12 (configuration not stated) ?
Result string: -41.8

Query string: For the molecule O=c1c2cn[nH]c2nc(SCCN2CCCC2)n1-c1ccccc1 , what INHIBITION is on record?
Result string: -15.12

====

# System: Plasmodium berghei
# Protocol text: Screen against P. berghei liver stage (PbLuc), transformed with Luciferase, at 2uM
# Type: functional, HepG2
# Experimental context: tested at 2 uM
Hit rate of the full screen: of about 68,000 compounds, about 2,700 (4%) showed an effect of 50% or more. Shown is part of a subset that was picked to be rich in strong results.
Note to self: use y only for INHIBITION readings below 10%; a reading exactly at 10% still gets n.

Query string: Given the entry O=C(c1ccc2ccccc2c1)C1CCCN(C(=O)Cn2cnnn2)C1 (centres undefined) , would its reported INHIBITION be below 10%?
Result string: n

Query string: Strictly below 10%: is that where INHIBITION of COc1ccc(Cl)cc1C(=O)N1C[C@H](C(C)C)[C@@H](N)C1 sits?
Result string: y

Query string: Does this compound meet the criterion INHIBITION < 10%? Cc1cc(C)n(CC2CCCCN2CC(=O)NC2CCOCC2)n1 (centres undefined)
Result string: n

Query string: In the record for COc1ccccc1C(NCc1ccc(SC)cc1)c1nccn1C (centres undefined) , is INHIBITION less than 10%?
Result string: n

Query string: Regarding COC(=O)C1CCN(C(=O)c2nnc3ccc(Cl)cc3n2)CC1 , kindly confirm whether its INHIBITION is beneath 10%.
Result string: n

Query string: Consider CCNC(=O)NC1CN(Cc2ccncc2Cl)C[C@@H]1OC (some centres undefined) . Does its INHIBITION lie strictly below 10%?
Result string: y

New cases:
Query string: Regarding CN(Cc1nc2ccccc2[nH]1)C(=O)CN(C)c1ccc(Cl)cn1 , kindly confirm whether its INHIBITION is beneath 10%.
Result string: n

Query string: Is the reported INHIBITION for CN(CC(=O)Nc1ccccc1)C(=O)CN(C)c1ccc(Cl)cn1 strictly below 10%?
Result string: y

Query string: Threshold test, INHIBITION < 10%: CC(=O)N[C@@H]1CN(C(=O)CC2CCOCC2)C[C@H]1O
Result string: y

Query string: I wonder whether COc1ccc(C)cc1-n1cnnc1C1CC(=O)N(C)C1 (centres undefined) has INHIBITION below 10%. Can you tell?
Result string: n

Query string: Take the compound CC(C)NC(=O)CC(C)NCc1cc(Cl)ccc1F (centres undefined) and say whether its INHIBITION is less than 10%.
Result string: n

====

# Tested on: Plasmodium berghei
# Protocol text: Screen against P. berghei liver stage (PbLuc), transformed with Luciferase, at 2uM
# Assay type: functional, HepG2
# Experimental context: tested at 2 uM
Among all 68,000 compounds or so, about 2,700 (4%) showed an effect of 50% or more. This excerpt belongs to a sample that is enriched for strong results.
Dear colleague, classification is by INHIBITION, with ranges listed here: class A: < 20%; class B: ≥ 20% and < 40%; class C: ≥ 40%

// known answers, use as guide
Query string: Would you mind sorting Cc1ccc(C2COCCN2C(=O)c2ccc(C)s2)o1 (stereo not given) into the appropriate category?
Result string: class A

Query string: Band of CSc1ccc(C(CC(=O)O)NC(=O)c2cc(C)on2)cc1 (stereo not given) ?
Result string: class A

Continuing:
Query string: Field: class (INHIBITION) — entry: Cc1cccc(CN2CCn3cc(CNC(=O)CC4CC4)nc3C2)n1
Result string: class A

Query string: Kindly state the category for this molecule: CC(C)CNC(=O)[C@H]1CCS(=O)(=O)[C@@H]2CN(Cc3cccnc3)C[C@H]12
Result string: class B

Query string: // bin(item) where item = CN(C)C(=O)COC[C@H]1CC[C@@H]2[C@@H](CCN2Cc2ccccn2)O1
Result string: class C

Query string: Just checking, what class would you give Cc1ccc(C)c(CS(=O)(=O)CC(=O)NCCCOC(C)C)c1 here?
Result string: class B

Query string: Please indicate the class for COC(=O)[C@@H]1Cc2ncn(C)c2CN1S(=O)(=O)c1ccc(C)cc1 based on its INHIBITION.
Result string: class A

Query string: Lab note: sort COc1ccc(C(CC(=O)O)NC(=O)c2cc(C)on2)cc1 (stereo not given) into the matching INHIBITION band.
Result string: class C

====

# Tested on: Plasmodium berghei
# Protocol text: Screen against P. berghei liver stage (PbLuc), transformed with Luciferase, at 2uM
# Format: functional, HepG2
# Experimental context: tested at 2 uM
About 2,700 (4%) of roughly 68,000 compounds showed an effect of 50% or more. The sample as a whole holds a higher share of strong results than the screen did.
Catalogue of molecules with associated INHIBITION
# number only, unit % dropped from output

Below, each entry is followed by its recorded INHIBITION result.
Query string: # get_value(readout= INHIBITION, system= Plasmodium berghei) for CN(Cc1ccco1)[C@@H]1CN(Cc2ccc(F)cc2)C[C@@H]2CCCO[C@@H]21
Result string: 29.73

Query string: Value wanted: INHIBITION (Plasmodium berghei) of entry O=C(N[C@@H]1CN(Cc2ccccc2)C[C@@H]2CCCO[C@@H]21)C1CC1
Result string: 50.9

Query string: Could you share what INHIBITION was measured for CS(=O)(=O)N[C@@H]1CN(Cc2ccccc2)C[C@@H]2CCCO[C@@H]21 , tested on Plasmodium berghei?
Result string: 14.39

Query string: What is its INHIBITION for Plasmodium berghei? Entry: CN(Cc1ccco1)[C@@H]1CN(Cc2cccnc2)C[C@@H]2CCCO[C@@H]21
Result string: 29.36

Then this molecule:
Query string: API: value(readout=INHIBITION, system=Plasmodium berghei) for record O=C(CC1CC1)N[C@@H]1CN(Cc2ccncc2)C[C@@H]2CCCO[C@@H]21
Result string: 29.01
